subject.of.test: T1, BMP-2 (UniProt P12643 283-396)
T1 construct: also called bone morphogenic protein 2
experiment.summary: relative EC50 of synthetic peptide on BMP-2; format not described, data not shown
pEC50: −log10 of the molar value. Ends that are not written are not given here.
readout.type: pEC50

1. GGGAWEAFSSLSGSRV (also: biotinylated, position not given here, Synthetic peptide found by phage display on immobilized BMP-2; also called P9) [BMP binding peptide SEQ ID NO: 1]; 9.10
2. GGALGFPLKGEVVEGWA (also: biotinylated, position not given here, Synthetic peptide found by phage display on immobilized BMP-2; also called P10) [BMP binding peptide SEQ ID NO: 2]; 9.05

All figures here come from patent US20110117165A1.
